test system: HT-29; experiment: NCI tumour cell line growth inhibition, 48 h
Activity calls are given as the source filed them. Rule as the data show it: active = GI50 up to about 1.1 µM and inactive = higher.
Result type: GI50

compound=COc1cc(OC)c(-c2oc3ccccc3c(=O)c2O)c(OC)c1 experimental_target=HT-29 result_type=GI50 val="3.08 µM (inactive)"
compound=CN(C)[C@@H]1C(O)=C(C(=O)NCNc2nc3[nH]nnc3c(=O)[nH]2)C(=O)[C@@]2(O)C(O)=C3C(=O)c4c(O)cccc4[C@@](C)(O)[C@H]3C[C@@H]12 experimental_target=HT-29 result_type=GI50 val="43.7 µM (inactive)"
compound="COC(=O)/C=C/C1C2C3(CCC(C)C12C)OCCS3 (stereo not given)" experimental_target=HT-29 result_type=GI50 val="> 100 µM (inactive)"
compound=O=C(NCC(=O)N1CCOC1=O)OCc1ccccc1 experimental_target=HT-29 result_type=GI50 val="> 100 µM (inactive)"
compound=Oc1cccc2c(Br)ccnc12 experimental_target=HT-29 result_type=GI50 val="5.4 µM (inactive)"
compound=O=C(Nc1ccn(CCI)c(=O)n1)c1ccccc1 experimental_target=HT-29 result_type=GI50 val="> 100 µM (inactive)"
compound=N/C(=N\O)N/N=C\c1ccc(O)c(O)c1O experimental_target=HT-29 result_type=GI50 val="11.1 µM (inactive)"
compound=CCOC(=O)c1nc2cc(C(F)(F)F)ccc2nc1Nc1ccc(C(=O)NC(C(=O)OCC)C(=O)OCC)cc1 experimental_target=HT-29 result_type=GI50 val="25.1 µM (inactive)"
compound=COc1cc(Oc2nc3ccccc3nc2C(=O)O)cc(OC)c1OC experimental_target=HT-29 result_type=GI50 val="> 100 µM (inactive)"
compound="C=C1CC[C@@H]2C13[C@@H]1[C@H](CC(=O)[C@@]23C)C1(C)C (stereo not given in full)" experimental_target=HT-29 result_type=GI50 val="> 100 µM (inactive)"

----------
system: UO-31; assay: NCI tumour cell line growth inhibition, 48 h
Active and inactive are the calls of the source. Cut-off read from the data, not from the text of the source: active = GI50 up to about 1.1 µM and inactive = higher.
Labels: active, inactive

compound=O=[N+]([O-])C(/C(Cl)=C(/Cl)N1CCCCC1)=C1\NCCO1 experimental_target=UO-31 class_assignment=inactive
compound=Cc1[nH]n(C2=NCCN2)c(=O)c1C experimental_target=UO-31 class_assignment=inactive
compound="O=C1c2cc3c(cc2CC1Cc1ccc2c(c1)CCC2)CCC3 (stereo not given)" experimental_target=UO-31 class_assignment=inactive
compound="O=C(NC12CC3CCC1CC(C3)C2)[C@@H]1CCCN1C(=O)OCc1ccccc1 (stereo not given in full)" experimental_target=UO-31 class_assignment=inactive
compound=COc1nc(/C=N/NC(N)=S)nc(OC)n1 experimental_target=UO-31 class_assignment=inactive
compound=CN(C)CCn1c(=O)c2ccc(NCCN3CCNCC3)c3c(=O)c4ccccc4n(c1=O)c23 experimental_target=UO-31 class_assignment=inactive
compound=CSc1nc(O)c2cn(Cc3ccccc3)nc2n1 experimental_target=UO-31 class_assignment=inactive
compound=C=CCOc1ccc(C(=N/NC(=O)c2ccccc2)/N=N/c2ccc([N+](=O)[O-])cc2)cc1OC experimental_target=UO-31 class_assignment=inactive
compound=COc1c(C)c(OC)c2c(c1O)[C@@H]1[C@@H]3Cc4c(OC)c(C)c(OC)c(O)c4[C@H](CNC(=O)c4cnc5ccccc5n4)N3[C@@H](C#N)[C@H](C2)N1C experimental_target=UO-31 class_assignment=active
compound=COC(=O)c1cc(C#N)[nH]c1-c1cccs1 experimental_target=UO-31 class_assignment=inactive

----------
test system: SK-MEL-28; assay: NCI tumour cell line growth inhibition, 48 h
Calls of active or inactive are those of the source. No stated cut-off is given here; in the data, active = GI50 up to about 1.1 µM and inactive = higher.
Result type: GI50

compound=Cc1ccc(C)c(NC(=O)CCC(=O)CC(=O)C(C)(C)C)c1 experimental_target=SK-MEL-28 result_type=GI50 val="> 100 µM (inactive)"
compound=COc1cc(/N=N\c2cccc(S(=O)(=O)O)c2)ccc1/N=N\c1ccc(/C=C/c2ccc(-n3on3-c3ccc(/C=C/c4ccc(/N=N/c5ccc(/N=N\c6cccc(S(=O)(=O)O)c6)cc5OC)cc4S(=O)(=O)O)c(S(=O)(=O)O)c3)cc2S(=O)(=O)O)c(S(=O)(=O)O)c1 experimental_target=SK-MEL-28 result_type=GI50 val="> 100 µM (inactive)"
compound=CNS(=O)(=O)NNS(=O)(=O)c1ccc(Br)cc1 experimental_target=SK-MEL-28 result_type=GI50 val="> 100 µM (inactive)"
compound=COc1ccc2c(c1)CCc1c-2nc2cc3c(cc2c1O)OCO3 experimental_target=SK-MEL-28 result_type=GI50 val="> 100 µM (inactive)"
compound="CCCC[S+]([O-])CC(CO)NC(=O)/C=C/c1c(C)[nH]c(=O)[nH]c1=O (centres undefined)" experimental_target=SK-MEL-28 result_type=GI50 val="6.5 µM (inactive)"
compound="CC(c1ccccc1)N1CCN(C(C)c2ccccc2)CC1 (centres undefined)" experimental_target=SK-MEL-28 result_type=GI50 val="29 µM (inactive)"
compound=CN(C)CCCNc1ccnc2cc([N+](=O)[O-])ccc12 experimental_target=SK-MEL-28 result_type=GI50 val="36.2 µM (inactive)"
compound="O=S(=O)(C1=CC(S(=O)(=O)c2ccccc2)CN(Cc2ccccc2)C1c1cccc2ccccc12)c1ccccc1 (centres undefined)" experimental_target=SK-MEL-28 result_type=GI50 val="> 69 µM (inactive)"
compound=O=C(O)Cn1c(=O)[nH]c(=O)c2[nH]cnc21 experimental_target=SK-MEL-28 result_type=GI50 val="> 100 µM (inactive)"

----------
system: MCF7; assay: NCI tumour cell line growth inhibition, 48 h
The source made the active and inactive calls. No stated cut-off is given here; in the data, active = GI50 up to about 1.1 µM and inactive = higher.
Result type: GI50

compound="C/C=C(\\CCC1NCCc2c1[nH]c1ccccc21)[Si](C)(C)C (stereo unspecified)" val="2.02 µM (inactive)"
compound=c1ccc2c(c1)Nc1cccc3c1c-2nc1cc2ccccc2cc13 val="1.56 µM (inactive)"
compound="O=C(O)C1CCCCC1c1c2ccc(=O)c(O)c-2oc2c(O)c(O)ccc12 (stereo unspecified)" val="14.2 µM (inactive)"
compound="C/C=C1/CN2CCC34c5ccccc5N(C)C23C2CC1C4(C(=O)OC)C(O)O2 (stereo unspecified)" val="> 100 µM (inactive)"
compound=CN(C)CCNC(=O)c1cccc2nc3c(C(=O)NCCN(C)C)cccc3nc12 val="0.706 µM (active)"
compound=COc1nc2sc3c(c2c(=O)n1CCCSSCCCn1c(OC)nc2sc4c(c2c1=O)CCCC4)CCCC3 val="> 100 µM (inactive)"
compound=O=C(O)CCC(=O)c1ccc2ccc3cccc4ccc1c2c34 val="54.3 µM (inactive)"
compound=CCOC(=O)/C(=C\n1c(=O)sc2ccccc21)C(=O)c1ccccc1 val="> 100 µM (inactive)"
compound=Oc1cccc2c(Br)ccnc12 val="4.43 µM (inactive)"
compound=CCc1cn2c(/C=N/N=C(N)N)c(-c3cc(C)c(Cl)cc3Cl)nc2s1 val="1.71 µM (inactive)"
compound="CC1(C)CC[C@]2(C(=O)O)CC[C@]3(C)C(=CC[C@@H]4[C@@]5(C)CC[C@H](OC6OC(CO)C(O)C(O)C6O)C(C)(C)[C@@H]5CC[C@]43C)[C@@H]2C1 (stereo partly specified)" val="2.37 µM (inactive)"
compound=CCCNC(=O)Cn1c(-c2ccccc2)cc2ccccc21 val="37.5 µM (inactive)"
compound="Cc1cccc(C)c1NC(=O)C(Cc1c[nH]c2ccccc12)NC(=O)OCc1ccccc1 (stereo unspecified)" val="23.2 µM (inactive)"
compound=NC(=S)Nc1c(S(N)(=O)=O)cc(S(N)(=O)=O)c(Cl)c1Cl val="> 100 µM (inactive)"
compound="N=C(N)c1ccc(OCCCCCOc2ccc(C(=N)N)cc2)cc1 [PENTAMIDINE]" val="9.55 µM (inactive)"
compound=CNc1cc(N)ccc1C(=O)N1CCC[C@H]1CO val="> 100 µM (inactive)"
compound=CN/C(=N\N)NS(=O)(=O)c1cc(C)c(Cl)cc1S val="62.4 µM (inactive)"
compound=O=C(O)c1cc(=O)c2c(OCC(O)COc3cccc4oc(C(=O)O)cc(=O)c34)cccc2o1 val="> 85.1 µM (inactive)"
compound=O=[N+]([O-])c1ccc2[nH]ncc2c1Cl val="41.7 µM (inactive)"
compound=CCOC(=O)C1=NN(c2ccc(C)cc2)C2=CC(C)=NN(C)C(=S)N21 val="> 10 µM (inactive)"
compound=COc1cc(O)cc(O)c1C(=O)CC(Cl)(Cl)Cl val="> 100 µM (inactive)"

----------
system: HOP-62; experiment: NCI tumour cell line growth inhibition, 48 h
Active and inactive are the calls of the source. No stated cut-off is given here; in the data, active = GI50 up to about 1.1 µM and inactive = higher.
Labels: active, inactive

compound=CC[C@@]1(OC(=O)CN(C)C)C(=O)OCc2c1cc1n(c2=O)Cc2cc3ccccc3nc2-1 class_assignment=active
compound=N#CC(C#N)=Cn1c(=S)[nH]c2ccc([N+](=O)[O-])cc21 class_assignment=inactive
compound=CC(C)(C)C1=CC(=C2C=Cc3ccccc3O2)C=C(C(C)(C)C)C1=O class_assignment=inactive
compound=Cc1c2c(Cl)c3c(c(Cl)c2c(C)c2c(Cl)c4c(c(Cl)c12)C(c1ccccc1)(c1ccccc1)C4(c1ccccc1)c1ccccc1)C(c1ccccc1)(c1ccccc1)C3(c1ccccc1)c1ccccc1 class_assignment=inactive
compound=CCOC(=O)c1cn2c(n1)sc1cc(C)c(C)cc12 class_assignment=inactive
compound="COC(=O)C(C(=O)C(=O)Nc1ccccc1OC)c1csc(-n2nc(-c3ccccc3)cc2-c2ccccc2)n1 (stereo not drawn)" class_assignment=inactive
compound="CC(=O)OCC1OC(n2c(=S)n(-c3ccc([N+](=O)[O-])cc3)c(=O)c3ccccc32)C(OC(C)=O)C(OC(C)=O)C1OC(C)=O (stereo not drawn)" class_assignment=inactive
compound=CCOC(=O)/C=C(/C(=O)OCC)n1cc(Cl)c(=O)n(CC(=O)OCC)c1=O class_assignment=inactive
